Please provide measured IC50 for the entries that follow.
Test system: CRL-5803 (non-small cell lung carcinoma cell line)
protocol: Cytotoxicity test, IC50 determination by MTT test
Format: cell-based
condition-notes: 24 hr incubation, 20000 cells/well, 10% serum, solutol solutions; read-out: IC50 ± SD (MTT-Test), CRL5803
Reply numerically in µM, unit not repeated.

Which value of IC50 has been reported for CCCCCCCCCCCCCCCCC(O)CNCCCC (stereo not drawn) in the records?
32

Consider the compound shown here: CCCCCCCCCCCCCCCCC(O)CNCCCCCCCC (stereo not drawn) What is its recorded IC50?
29

// returns reported IC50 for input CCCCCCCCCCCCCCCCC(O)CN(CC)CC (stereo not drawn)
40

Consider the compound CCCCCCCCCCCCCCCCC(O)CNCCCCCC (stereo not drawn) and give its measured IC50.
18

====

protocol: Solubility of compounds in DMSO, ethanol and Solutol-HS15 (20 mM stock solutions)
Format: physicochemical
condition-notes: organic solvent or mixture; DMSO; 20 mM stock solutions; read-out: Solubility, DMSO
For each record, write down the corresponding solubility.

Please look up its solubility: CCCCCCCCCCCCCCCCC(O)CNCCCCCCCC (stereo not drawn)
< 20 mM

Reported solubility, compound CCCCCCCCCCCCCCCCC(O)CNCCCCCCCCCCCC (stereo not drawn) : ____
< 20 mM

Recorded solubility for CCCCCCCCCCCCCCCCC(O)CN(CC)CC (stereo not drawn) , please?
> 20 mM

Bench note: what solubility did CCCCCCCCCC(O)CNCCCCCC (stereo not drawn) show?
> 20 mM

# solubility lookup, item CCCCCCCCCC(O)CNCCCCCCCC (stereo not drawn)
< 20 mM

// solubility lookup, key: CCCCCCCCCCCCCCCCC(O)CNCCCCCC (stereo not drawn)
< 20 mM

====

System: A2780cisR (ovarian carcinoma-cisPt resistance cell line)
protocol: Cytotoxicity test, IC50 determination by MTT test
Format: cell-based
condition-notes: Homo sapiens, A2780cisR; 24 hr incubation, 20000 cells/well, 10% serum, solutol solutions; read-out: IC50 ± SD (MTT-Test), A2780cisR
For each record, write down the corresponding IC50.
Output spec: scalar in µM, unitless text.

Entry CCCCCCCCCCCCCCCCC(O)CN(CC)CC (centres unmarked) [Compound A1, 1-DEA-amino-octadecan-2-ol] , system A2780cisR (ovarian carcinoma-cisPt resistance cell line): what IC50 was measured?
21

# returns recorded IC50 (system: A2780cisR (ovarian carcinoma-cisPt resistance cell line)) for CCCCCCCCCCCCCCCCC(O)CNCCCC (centres unmarked) [Compound A2, 1-Butyl-amino-octadecan-2-ol]
12

Value wanted: IC50 (A2780cisR (ovarian carcinoma-cisPt resistance cell line)) of entry CCCCCCCCCCCCCCCCC(O)CNCCCCCC (centres unmarked) [Compound A3, 1-Hexyl-amino-octadecan-2-ol]
9

Hello, I am looking for reported IC50 with A2780cisR (ovarian carcinoma-cisPt resistance cell line) for CCCCCCCCCCCCCCCCC(O)CNCCCCCCCC (centres unmarked) [Compound A4, 1-Octyl-amino-octadecan-2-ol] . Could you help?
12

====

System: A2780 (ovarian carcinoma cell line)
protocol: Cytotoxicity test, IC50 determination by MTT test
Type: cell-based
condition-notes: 24 hr incubation, 20000 cells/well, 10% serum, solutol solutions; read-out: IC50 ± SD (MTT-Test), A2780
measure: pIC50
Reminder that pIC50 is minus the log10 of a molar concentration.

Need pIC50, item N.N.[Cl][Pt][Cl] [cis-Pt, reference compound]
4.52
